molecular target: four heptad repeat Ser2P CTD peptide; experiment: fluorescence polarisation
attribute-measured: Kd2 (second binding event) (µM)

- Pcf11 CTD-interacting domain (domain or fragment, S. cerevisiae, UniProt P39081 4-139, looked up) DTEVIVKDFNSILEELTFNSRPIITTLTKLAEENISCAQYFVDAIESRIEKCMPKQKLYAFYALDSICKNVGSPYTIYFSRNLFNLYKRTYLLVDNTTRTKLINMFKLWLNPNDTGLPLFEGSALEKIEQFLIKAS: 140
- Pcf11(D117K)-CID (domain or fragment) DTEVIVKDFNSILEELTFNSRPIITTLTKLAEENISCAQYFVDAIESRIEKCMPKQKLYAFYALDSICKNVGSPYTIYFSRNLFNLYKRTYLLVDNTTRTKLINMFKLWLNPNKTGLPLFEGSALEKIEQFLIKAS: 130
- Pcf11(D117A)-CID (domain or fragment) DTEVIVKDFNSILEELTFNSRPIITTLTKLAEENISCAQYFVDAIESRIEKCMPKQKLYAFYALDSICKNVGSPYTIYFSRNLFNLYKRTYLLVDNTTRTKLINMFKLWLNPNATGLPLFEGSALEKIEQFLIKAS: 430
- Rtt103 CTD-interacting domain (residues 1-131) (domain or fragment) MPFSSEQFTTKLNTLEDSQESISSASKWLLLQYRDAPKVAEMWKEYMLRPSVNTRRKLLGLYLMNHVVQQAKGQKIIQFQDSFGKVAAEVLGRINQEFPRDLKKKLSRVVNILKERNIFSKQVVNDIERSL: 20

Values were extracted from paper PMC2950884.
